Target: HCV NTPase/helicase (Hepatitis C virus genotype 1a, UniProt P27958)
Sequence (P27958 1027-1657): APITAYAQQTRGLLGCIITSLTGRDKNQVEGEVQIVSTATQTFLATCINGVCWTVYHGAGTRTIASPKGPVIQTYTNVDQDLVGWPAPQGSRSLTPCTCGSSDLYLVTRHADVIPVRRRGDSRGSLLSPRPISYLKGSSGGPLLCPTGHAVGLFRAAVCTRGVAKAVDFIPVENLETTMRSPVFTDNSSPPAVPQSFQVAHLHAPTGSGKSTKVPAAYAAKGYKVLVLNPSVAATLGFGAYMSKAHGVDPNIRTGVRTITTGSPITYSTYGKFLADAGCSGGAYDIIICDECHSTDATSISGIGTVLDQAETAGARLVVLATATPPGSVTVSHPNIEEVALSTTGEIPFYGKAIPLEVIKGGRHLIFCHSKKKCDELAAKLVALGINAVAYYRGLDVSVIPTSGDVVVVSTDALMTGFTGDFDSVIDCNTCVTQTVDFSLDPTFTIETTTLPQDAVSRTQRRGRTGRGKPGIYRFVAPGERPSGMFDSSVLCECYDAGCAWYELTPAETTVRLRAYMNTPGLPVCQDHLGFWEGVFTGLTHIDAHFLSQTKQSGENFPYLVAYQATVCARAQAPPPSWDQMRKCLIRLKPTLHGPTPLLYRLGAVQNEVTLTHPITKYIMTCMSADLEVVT
Experiment: NTPase/Helicase assay, HCV helicase, RNA substrate
Assay type: biochemical
Details: HCV Helicase (IC50) RNA
Please provide measured IC50 for the entries that follow.
Remember to put the unit after the number in your answer.

Record summary for COC(=O)c1cccc2oc(-c3ccc4ccccc4c3O)nc12 [Compound 6] : reported IC50 = 592 µM

Measured IC50, COC(=O)c1cccc2oc(-c3ccc4ccc(OCc5ccccc5)cc4c3O)nc12 [Compound 2b] : 19.7 µM

The reported value for COC(=O)c1cccc2oc(-c3ccc4c(OCc5ccccc5)cccc4c3O)nc12 [Compound 2a] in terms of IC50 is 20.4 µM

###

Target: HCV NTPase/helicase (Hepatitis C virus genotype 1a, UniProt P27958)
Experiment: NTPase/Helicase assay, HCV helicase, RNA substrate
Type: biochemical
Details: read-out: HCV Helicase (IC50) RNA
I'd appreciate it if you could supply IC50 values for the items below.

Please fill in: IC50 reported for CNC(=O)c1cccc2oc(-c3ccccc3O)nc12 [Compound 10] = > 1860 µM

Entry COC(=O)c1cccc2oc(-c3cccc4oc(-c5ccccc5O)nc34)nc12 [Compound 1, UK-1] , IC50 reported as > 1290 µM

Kindly note the recorded IC50 for COC(=O)c1cccc2oc(-c3ccccc3O)nc12 [Compound 8] , which is > 1860 µM

Kindly note the recorded IC50 for O=C(O)c1cccc2oc(-c3ccccc3O)nc12 [Compound 9] , which is > 1960 µM

###

System: Huh7 ET (luc-ubi-neo/ET) cell line
Assay: HCV replicon assay (luciferase based), cytotoxicity
Format: cell-based
Settings: cytotoxicity in luciferase based replicon assay, high test conc 20 μM (rIFNa-2b 2)
Define the label as yes when IC50 is strictly less than 5 µM and as no in all remaining cases.

Task: # check: IC50 < 5 µM for COC(=O)c1cccc2oc(-c3ccccc3O)nc12 [Compound 8]
Result: no

Task: Take the compound COC(=O)c1cccc2oc(-c3cccc4oc(-c5ccccc5O)nc34)nc12 [Compound 1, UK-1] and say whether its IC50 is less than 5 µM.
Result: no

Task: Is 5 µM strictly greater than the compound's reported IC50? compound: O=C(O)c1cccc2oc(-c3ccccc3O)nc12 [Compound 9]
Result: yes

Task: Here's an entry: COC(=O)c1cccc2oc(-c3ccc4ccccc4c3O)nc12 [Compound 6] . Is its IC50 below 5 µM?
Result: yes

Task: Lab log: compare recorded IC50 with 5 µM; is it strictly lower for CNC(=O)c1cccc2oc(-c3ccccc3O)nc12 [Compound 10] ?
Result: no

Task: I'd appreciate it if you could check whether COC(=O)c1cccc2oc(-c3ccc4ccc(OCc5ccccc5)cc4c3O)nc12 [Compound 2b] has IC50 smaller than 5 µM.
Result: no

Task: Criterion: IC50 strictly below 5 µM. Is it met by COC(=O)c1cccc2oc(-c3ccc4c(OCc5ccccc5)cccc4c3O)nc12 [Compound 2a] ?
Result: no

###

System: HCV replicon in Huh7 ET (luc-ubi-neo/ET) cell line
Experiment: HCV replicon assay (luciferase based), antiviral activity
Format: cell-based, Hepatitis C Virus
Design: unit not given here
Conditions: selectivity index, luciferase based replicon assay
endpoint label: SI50
Give a plain numeric answer without units written out.

// recorded SI50 for COC(=O)c1cccc2oc(-c3ccc4ccccc4c3O)nc12 : 7.67

SI50 measured on CNC(=O)c1cccc2oc(-c3ccccc3O)nc12 = 4.5

So, COC(=O)c1cccc2oc(-c3ccccc3O)nc12 ? Its SI50 was 16.2

So, O=C(O)c1cccc2oc(-c3ccccc3O)nc12 ? Its SI50 was 16.7

###

Exercise: for every item that follows, state its recorded IC50.
Molecular target: HCV NTPase/helicase (Hepatitis C virus genotype 1a, UniProt P27958)
Test: NTPase/Helicase assay, HCV helicase, DNA substrate
Type: biochemical
Settings: DNA substrate; read-out: HCV Helicase (IC50) DNA (converted)

Per the record, COC(=O)c1cccc2oc(-c3cccc4oc(-c5ccccc5O)nc34)nc12 has IC50 of 378 µM

Entry CNC(=O)c1cccc2oc(-c3ccccc3O)nc12 , IC50 reported as > 1860 µM

In plain terms, COC(=O)c1cccc2oc(-c3ccccc3O)nc12 has a documented IC50 of > 1860 µM

For reference, reported IC50 for O=C(O)c1cccc2oc(-c3ccccc3O)nc12 stands at > 1960 µM

###

Molecular target: HCV NTPase/helicase (Hepatitis C virus genotype 1a)
Assay: NTPase/Helicase assay, HCV helicase, DNA substrate
Format: biochemical
Conditions: HCV Helicase (IC50) DNA, in brackets, DNA substrate; molar value in brackets
Kindly state pIC50 for each of the entries shown.
The value called pIC50 is obtained by taking minus log10 of the concentration in mol/L.

So for COC(=O)c1cccc2oc(-c3ccc4ccc(OCc5ccccc5)cc4c3O)nc12 , the logged pIC50 turned out to be 5.59

// recorded pIC50 for COC(=O)c1cccc2oc(-c3ccc4ccccc4c3O)nc12 : 3.27

Notebook: COC(=O)c1cccc2oc(-c3ccc4c(OCc5ccccc5)cccc4c3O)nc12 , pIC50 read as 5.42

###

Molecular target: UniProt P27958
Assay: ATPase analysis of HCV NTPase/helicase
Type: biochemical
Details: read-out: ATPase (IC50)
Record form. Attribute: IC50. Fill in for each entry.

Query CNC(=O)c1cccc2oc(-c3ccccc3O)nc12 yields IC50 of > 1860 µM

For record O=C(O)c1cccc2oc(-c3ccccc3O)nc12 the listed IC50 is > 1960 µM

For reference, reported IC50 for COC(=O)c1cccc2oc(-c3ccccc3O)nc12 stands at > 1860 µM

Per the records, this compound ( COC(=O)c1cccc2oc(-c3cccc4oc(-c5ccccc5O)nc34)nc12 ) has IC50 equal to > 1290 µM
